For reference, the following pIC50 results for Vascular endothelial growth factor receptor 2 (Homo sapiens, UniProt P35968) were taken from various sources.
pIC50: −log10 of the molar value.
testReadout: pIC50

C=CC(=O)Nc1cc2c(Nc3ccc(Br)c(Cl)c3F)ncnc2cc1OCCNC(=O)NCCC	6.89

A. COc1cc(C2=C(c3c[nH]c4ccncc34)C(=O)NC2=O)cc(OC)c1OC
B. COc1cc(OC)cc(N(CCO)c2ccc3ncc(-c4cccnc4)nc3c2)c1
C. Cc1cc(NC(=O)Nc2cccc(C(F)(F)F)c2)ccc1Oc1cc(NC(=O)C2CC2)ncn1
input: List from greatest to least pIC50. Write the labels in rank order as requested.
output: C, A, B
(C: 7.84, A: 7.64, B: 6.53)
